Tested System: PTK2 (FAK) (Homo sapiens (Human))
Test Name: Z′-LYTE kinase assay (SelectScreen Biochemical Kinase Profiling), enzymatic IC50
Condition Description: enzymatic, Z′-LYTE; read-out: FAK IC50
Readout Label: pIC50
API: returns pIC50 as number; meaning -log10 of concentration in mol/L.

Below, 2 compounds whose answers are already recorded.
> print(dat)
                                smiles.code  result.value
1  COc1cc(N2CCN(C(C)=O)CC2)ccc1Nc1ncc2c(n1)N(C)c1sc(C)nc1C(=O)N2C          7.34
2  COc1cc(N2CCN(S(C)(=O)=O)CC2)ccc1Nc1ncc2c(n1)N(C)c1sc(C)nc1C(=O)N2C          7.33

Prompt: Please look up its pIC50: COc1cc(N2CCC(N3CCN(C)CC3)CC2)ccc1Nc1ncc2c(n1)N(C)c1sc(C(C)C)nc1C(=O)N2C
Response: 7.23

###

Tested System: STK33 (Homo sapiens (Human), UniProt Q9BYT3)
Sequence (Q9BYT3 whole entry): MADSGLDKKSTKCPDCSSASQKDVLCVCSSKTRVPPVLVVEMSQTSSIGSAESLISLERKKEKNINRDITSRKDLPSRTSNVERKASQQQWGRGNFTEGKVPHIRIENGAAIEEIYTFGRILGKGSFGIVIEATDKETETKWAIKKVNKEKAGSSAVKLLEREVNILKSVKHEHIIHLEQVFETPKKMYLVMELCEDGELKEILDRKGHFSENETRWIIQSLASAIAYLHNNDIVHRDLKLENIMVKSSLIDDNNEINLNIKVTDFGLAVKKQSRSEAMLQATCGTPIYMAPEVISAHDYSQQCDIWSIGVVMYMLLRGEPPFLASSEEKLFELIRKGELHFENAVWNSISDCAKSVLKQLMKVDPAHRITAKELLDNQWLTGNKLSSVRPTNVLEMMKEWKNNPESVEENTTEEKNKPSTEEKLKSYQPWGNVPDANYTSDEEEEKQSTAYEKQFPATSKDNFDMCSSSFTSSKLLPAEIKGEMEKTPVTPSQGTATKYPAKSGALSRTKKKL
Readout Label: pIC50
API: returns pIC50 as number; meaning -log10 of concentration in mol/L.

Prompt: Please look up its pIC50: COc1cc(N2CCC(N3CCN(C)CC3)CC2)ccc1Nc1ncc2c(n1)N(C)c1sc(C)nc1C(=O)N2C
Response: 5.67

###

Tested System: DCLK1 (Homo sapiens (Human), UniProt O15075)
Sequence (O15075 whole entry): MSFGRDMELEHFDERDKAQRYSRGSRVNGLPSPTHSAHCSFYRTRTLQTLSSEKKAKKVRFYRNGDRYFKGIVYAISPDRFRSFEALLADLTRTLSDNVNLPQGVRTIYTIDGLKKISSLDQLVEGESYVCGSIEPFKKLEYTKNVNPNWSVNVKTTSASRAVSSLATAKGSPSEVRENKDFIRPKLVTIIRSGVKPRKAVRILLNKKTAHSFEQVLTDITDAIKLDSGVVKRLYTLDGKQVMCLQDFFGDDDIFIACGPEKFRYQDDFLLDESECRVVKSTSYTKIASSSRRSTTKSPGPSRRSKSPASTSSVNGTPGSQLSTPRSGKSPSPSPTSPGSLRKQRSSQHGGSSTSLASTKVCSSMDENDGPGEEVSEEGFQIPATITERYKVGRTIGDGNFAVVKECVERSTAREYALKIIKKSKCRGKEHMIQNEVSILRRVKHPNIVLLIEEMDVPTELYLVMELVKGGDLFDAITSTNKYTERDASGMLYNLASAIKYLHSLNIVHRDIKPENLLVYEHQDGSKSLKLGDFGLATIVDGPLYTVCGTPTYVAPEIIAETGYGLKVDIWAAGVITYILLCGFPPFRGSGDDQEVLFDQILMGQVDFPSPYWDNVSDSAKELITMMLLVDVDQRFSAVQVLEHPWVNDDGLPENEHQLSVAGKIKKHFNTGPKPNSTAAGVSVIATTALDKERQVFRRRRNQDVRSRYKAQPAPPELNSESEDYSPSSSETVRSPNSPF
Readout Label: IC50 (µM)
Please give a number only; it is taken to be in µM.

Prompt: Please look up its IC50: COc1cc(N2CCC(N3CCN(C)CC3)CC2)ccc1Nc1ncc2c(n1)N(C)c1sc(C)nc1C(=O)N2C
Response: 6.5

###

Tested System: PLK1 (Homo sapiens (Human))
Sequence (P53350 whole entry): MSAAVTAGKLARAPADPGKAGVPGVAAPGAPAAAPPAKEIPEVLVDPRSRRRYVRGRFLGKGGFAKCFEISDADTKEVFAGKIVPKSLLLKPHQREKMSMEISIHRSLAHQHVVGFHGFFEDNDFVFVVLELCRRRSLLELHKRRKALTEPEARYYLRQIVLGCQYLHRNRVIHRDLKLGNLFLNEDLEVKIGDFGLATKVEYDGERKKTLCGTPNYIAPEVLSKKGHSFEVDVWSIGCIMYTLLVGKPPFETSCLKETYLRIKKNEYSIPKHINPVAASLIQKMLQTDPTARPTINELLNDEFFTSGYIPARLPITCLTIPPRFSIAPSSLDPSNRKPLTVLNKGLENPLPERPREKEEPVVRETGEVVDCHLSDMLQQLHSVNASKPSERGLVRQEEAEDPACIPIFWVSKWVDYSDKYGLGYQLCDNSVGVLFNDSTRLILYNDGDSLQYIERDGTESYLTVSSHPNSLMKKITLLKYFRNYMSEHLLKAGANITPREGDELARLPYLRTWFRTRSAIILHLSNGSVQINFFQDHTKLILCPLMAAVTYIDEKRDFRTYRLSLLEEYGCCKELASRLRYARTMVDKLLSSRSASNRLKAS
Readout Label: pIC50
API: returns pIC50 as number; meaning -log10 of concentration in mol/L.

Prompt: Please look up its pIC50: COc1cc(N2CCC(N3CCN(C)CC3)CC2)ccc1Nc1ncc2c(n1)N(C)c1sc(C)nc1C(=O)N2C
Response: 5.08

###

Tested System: PTK2 (FAK) (Homo sapiens (Human))
Test Name: Z′-LYTE kinase assay (SelectScreen Biochemical Kinase Profiling), enzymatic IC50
Condition Description: FAK; Invitrogen; read-out: Biochemical IC50
Readout Label: IC50 (nM)
Please give a number only; it is taken to be in nM.

Prompt: Please look up its IC50: COc1cc(N2CCC(N3CCN(C)CC3)CC2)ccc1Nc1ncc2c(n1)N(C)c1sc(C)nc1C(=O)N2C
Response: 20.2

###

Tested System: UniProt Q05397
Test Name: Z′-LYTE kinase assay (SelectScreen Biochemical Kinase Profiling), enzymatic IC50
Condition Description: enzymatic, Z′-LYTE; read-out: FAK IC50
// reported log10 of IC50 for each item listed
Recall that a logarithmic scale is used here: each number is log10 of IC50 in nM.

Below, 6 molecules whose answers are already recorded.
> print(dat)
                                smiles.code   tested.system  result.value
1  COc1cc(N2CCN(C)CC2=O)ccc1Nc1ncc2c(n1)N(C)c1sc(C)nc1C(=O)N2C  UniProt Q05397          1.92
2  Cc1nc2c(s1)N(C)c1nc(Nc3ccc(N4CCC(O)CC4)cc3)ncc1NC2=O  UniProt Q05397          2.76
3  COc1cc(N2CCC(N3CCN(C)CC3)CC2)ccc1Nc1ncc2c(n1)N(C)c1sc(C(F)(F)F)nc1C(=O)N2C  UniProt Q05397          2.13
4  Cc1nc2c(s1)N(C)c1nc(Nc3ccc(N4CCN(C)CC4)cc3OCC(F)(F)F)ncc1N(C)C2=O  UniProt Q05397          1.92
5  CCN1C(=O)c2nc(C)sc2N(C)c2nc(Nc3ccc(N4CCC(N5CCN(C)CC5)CC4)cc3OC)ncc21  UniProt Q05397          1.27
6  CCc1nc2c(s1)N(C)c1nc(Nc3ccc(N4CCC(N5CCN(C)CC5)CC4)cc3OC)ncc1NC2=O  UniProt Q05397          1.51

Query molecule follows.
Prompt: Please look up its log10 of IC50: COc1cc(N2CCC(N3CCN(C)CC3)CC2)ccc1Nc1ncc2c(n1)N(CC(F)(F)F)c1sc(C)nc1C(=O)N2C
Response: 1.83

###

Tested System: UniProt:Q05397
Test Name: Z′-LYTE kinase assay (SelectScreen Biochemical Kinase Profiling), enzymatic IC50
Condition Description: enzymatic, Z′-LYTE; read-out: FAK IC50
// reported pIC50 for each item listed
API: returns pIC50 as number; meaning -log10 of concentration in mol/L.

Below, 2 compounds whose answers are already recorded.
> print(dat)
                                smiles.code  readout.label  result.value
1  CCN1c2nc(Nc3ccc(N4CCC(N5CCN(C)CC5)CC4)cc3OC)ncc2N(C)C(=O)c2nc(C)sc21          pIC50          7.64
2  CNC(=O)c1ccc(Nc2ncc3c(n2)N(C)c2sc(C)nc2C(=O)N3C)c(OC)c1          pIC50          7.34

Prompt: Please look up its pIC50: COc1cc(N2CCN(S(C)(=O)=O)CC2)ccc1Nc1ncc2c(n1)N(C)c1sc(C)nc1C(=O)N2
Response: 7.75

###

Tested System: PTK2 (FAK) (Homo sapiens (Human))
Test Name: Z′-LYTE kinase assay (SelectScreen Biochemical Kinase Profiling), enzymatic IC50
Condition Description: enzymatic, Z′-LYTE; read-out: FAK IC50
// reported log10(IC50) for each item listed
Recall that a logarithmic scale is used here: each number is log10 of IC50 in nM.

> print(dat)
                                   compound  result.value
1  COc1cc2c(cc1Nc1ncc3c(n1)N(C)c1sc(C)nc1C(=O)N3C)CN(C)CC2 [Compound 22]          1.58
2  COc1cc(N2CCC(N3CCN(C)CC3)CC2)ccc1Nc1ncc2c(n1)N(C)c1sc(C)nc1C(=O)N2C [Compound 5]          1.26
3  COc1cc(N2CCN(C)CC2)ccc1Nc1ncc2c(n1)N(C)c1sc(C)nc1C(=O)N2 [Compound 7]          1.69

Prompt: Please look up its log10(IC50): Cc1nc2c(s1)N(C)c1nc(Nc3ccc(N4CCN(C)CC4)cc3OCCO)ncc1N(C)C2=O [Compound 17]
Response: 2.67

Prompt: Please look up its log10(IC50): Cc1nc2c(s1)N(C)c1nc(Nc3ccc4c(c3)CCC(=O)N4)ncc1N(C)C2=O [Compound 23]
Response: 2.83

###

Tested System: PTK2 (FAK) (Homo sapiens (Human), UniProt Q05397)
Sequence (Q05397 whole entry): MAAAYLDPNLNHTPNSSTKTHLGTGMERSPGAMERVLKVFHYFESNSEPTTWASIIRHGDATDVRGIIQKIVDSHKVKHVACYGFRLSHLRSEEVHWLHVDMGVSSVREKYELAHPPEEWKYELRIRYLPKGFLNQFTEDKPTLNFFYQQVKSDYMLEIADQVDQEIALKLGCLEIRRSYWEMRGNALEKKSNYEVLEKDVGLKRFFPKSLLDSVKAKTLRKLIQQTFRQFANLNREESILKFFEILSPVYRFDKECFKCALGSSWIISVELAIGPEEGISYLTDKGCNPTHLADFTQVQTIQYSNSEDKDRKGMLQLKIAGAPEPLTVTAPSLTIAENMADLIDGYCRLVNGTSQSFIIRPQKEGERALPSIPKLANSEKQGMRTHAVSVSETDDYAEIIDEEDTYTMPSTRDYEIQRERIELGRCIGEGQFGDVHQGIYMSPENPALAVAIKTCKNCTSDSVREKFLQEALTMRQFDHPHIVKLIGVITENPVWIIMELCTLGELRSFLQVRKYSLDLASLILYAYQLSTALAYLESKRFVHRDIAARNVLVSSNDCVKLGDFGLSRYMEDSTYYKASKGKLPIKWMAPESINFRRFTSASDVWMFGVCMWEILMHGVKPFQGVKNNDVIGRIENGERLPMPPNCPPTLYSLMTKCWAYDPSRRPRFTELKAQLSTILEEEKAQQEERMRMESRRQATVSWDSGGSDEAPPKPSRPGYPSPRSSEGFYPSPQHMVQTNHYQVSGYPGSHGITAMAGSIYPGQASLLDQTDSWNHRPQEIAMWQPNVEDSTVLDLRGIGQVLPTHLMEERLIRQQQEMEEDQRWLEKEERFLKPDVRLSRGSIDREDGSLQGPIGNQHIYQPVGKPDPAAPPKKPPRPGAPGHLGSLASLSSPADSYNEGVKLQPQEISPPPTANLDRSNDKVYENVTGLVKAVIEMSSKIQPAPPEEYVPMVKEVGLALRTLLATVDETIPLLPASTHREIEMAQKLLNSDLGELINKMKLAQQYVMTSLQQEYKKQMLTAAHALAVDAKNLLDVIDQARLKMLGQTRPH
Test Name: Z′-LYTE kinase assay (SelectScreen Biochemical Kinase Profiling), enzymatic IC50
Condition Description: enzymatic, Z′-LYTE; read-out: FAK IC50
Readout Label: pIC50
API: returns pIC50 as number; meaning -log10 of concentration in mol/L.

Below, 5 compounds whose answers are already recorded.
> print(dat)
                                   compound  readout.label  result.value
1  COc1cc(Nc2ncc3c(n2)N(C)c2sc(C)nc2C(=O)N3)ccc1N1CCC(N2CCN(C)CC2)CC1 [Compound 194]          pIC50          7.25
2  COc1cc(N2CCN(C)CC2)c(C)cc1Nc1ncc2c(n1)N(C)c1sc(C)nc1C(=O)N2C [Compound 18]          pIC50          7.50
3  COc1cc(N2CCC(N3CCN(C)CC3)CC2)ccc1Nc1ncc2c(n1)N(C)c1scnc1C(=O)N2 [Compound 6]          pIC50          6.29
4  CCOc1cc(N2CCN(C)CC2)ccc1Nc1ncc2c(n1)N(C)c1sc(C)nc1C(=O)N2C [Compound 16]          pIC50          7.26
5  CNC(=O)c1ccc(Nc2ncc3c(n2)N(C)c2sc(C)nc2C(=O)N3)cc1 [Compound 10]          pIC50          6.89

Prompt: Please state recorded pIC50 (tested on PTK2 (FAK) (Homo sapiens (Human), UniProt Q05397)) of COc1cc(N2CCN(CCN(C)C)CC2)ccc1Nc1ncc2c(n1)N(C)c1sc(C)nc1C(=O)N2C [Compound 200]
Response: 7.17

Prompt: Please state recorded pIC50 (tested on PTK2 (FAK) (Homo sapiens (Human), UniProt Q05397)) of CCN1c2nc(Nc3ccc(N4CCC(N5CCN(C)CC5)CC4)cc3OC)ncc2NC(=O)c2nc(C)sc21 [Compound 9]
Response: 7.35
